All figures here come from ChEMBL document CHEMBL5532672.

# PROCEDURE TEXT: Brain concentration in rat at 1 mg/kg, iv measured after 15 mins
# Assay type: ADME, organism-based
# TEST CONTEXT: read-out: Ct
EXPERIMENTAL ENDPOINT: concentration at 0.25 h
Put down the number, then write its unit next to it.

Provide concentration at 0.25 h value for the following compound: CCOc1ccc(NC(=O)C(C)C)cc1C(=O)NC(C)c1cccc(NC)c1 (stereo unspecified) 38.2 ng/g

###

# PROCEDURE TEXT: Plasma concentration in rat at 1 mg/kg, iv measured after 15 mins
# Assay type: ADME, organism-based
EXPERIMENTAL ENDPOINT: concentration at 0.25 h
Put down the number, then write its unit next to it.

Provide concentration at 0.25 h value for the following molecule: CCOc1ccc(NC(=O)C(C)C)cc1C(=O)NC(C)c1cccc(NC)c1 (stereo unspecified) 539 ng/mL

###

# PROCEDURE TEXT: Terminal elimination half life in Sprague-Dawley rat at 0.5 mg/kg, iv measured upto 24 hrs by LC/MS/MS analysis
# Assay type: ADME, organism-based
# TEST CONTEXT: in vivo, read-out: beta t1/2 (converted)
EXPERIMENTAL ENDPOINT: half-life (min)
Please state the figure in min; there is no need to write the unit.

Provide half-life value for the following compound: CCOc1ccc(NC(=O)C(C)C)cc1C(=O)NC(C)c1cccc(NC)c1 (stereo unspecified) 30.6

###

# PROCEDURE TEXT: Cmax in Sprague-Dawley rat at 0.5 mg/kg, iv measured upto 24 hrs by LC/MS/MS analysis
# Assay type: ADME, organism-based
# TEST CONTEXT: in vivo
EXPERIMENTAL ENDPOINT: Cmax (ng/mL)
Please state the figure in ng/mL; there is no need to write the unit.

Provide Cmax value for the following compound: CCOc1ccc(NC(=O)C(C)C)cc1C(=O)NC(C)c1cccc(NC)c1 (stereo unspecified) 693

###

# TARGET: Potassium voltage-gated channel subfamily B member 1 (Homo sapiens)
# Sequence (Q14721 whole entry): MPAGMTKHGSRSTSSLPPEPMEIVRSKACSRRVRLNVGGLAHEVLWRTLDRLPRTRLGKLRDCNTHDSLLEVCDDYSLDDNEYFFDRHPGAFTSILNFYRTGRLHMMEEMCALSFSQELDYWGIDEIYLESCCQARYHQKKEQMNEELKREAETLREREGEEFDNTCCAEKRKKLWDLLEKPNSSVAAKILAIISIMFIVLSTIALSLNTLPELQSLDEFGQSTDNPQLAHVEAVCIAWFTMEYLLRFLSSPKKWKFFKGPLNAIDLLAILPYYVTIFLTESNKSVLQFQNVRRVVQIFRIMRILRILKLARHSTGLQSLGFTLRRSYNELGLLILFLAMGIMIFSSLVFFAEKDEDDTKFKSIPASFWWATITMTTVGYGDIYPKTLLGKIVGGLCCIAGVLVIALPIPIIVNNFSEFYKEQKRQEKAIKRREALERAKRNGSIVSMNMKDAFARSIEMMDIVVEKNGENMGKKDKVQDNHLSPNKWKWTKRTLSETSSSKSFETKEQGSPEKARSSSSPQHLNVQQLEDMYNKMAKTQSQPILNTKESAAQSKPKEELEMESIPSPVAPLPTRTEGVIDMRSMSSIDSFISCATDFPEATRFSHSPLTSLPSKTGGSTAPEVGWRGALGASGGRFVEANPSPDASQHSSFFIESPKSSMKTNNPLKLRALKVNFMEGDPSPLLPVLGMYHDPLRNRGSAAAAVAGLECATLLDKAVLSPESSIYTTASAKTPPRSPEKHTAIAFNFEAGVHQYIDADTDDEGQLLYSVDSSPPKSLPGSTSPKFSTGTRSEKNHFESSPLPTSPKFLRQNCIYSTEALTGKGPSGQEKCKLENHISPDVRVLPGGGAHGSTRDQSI
# PROCEDURE TEXT: Inhibition of human KV2.1 stably expressed in HEK293 cells by whole cell patch-clamp assay
Listing: pIC50 of selected compounds
Expect pIC50 as a plain number equal to -log10 of the molar concentration.

Below, each entry is followed by its recorded pIC50 result.
{"COMPOUND": "CC(C)C(=O)Nc1ccc(N(C)C)c(C(=O)NC(C)c2ccccc2)c1 (racemic)", "pIC50": 6.32}
{"COMPOUND": "CCOc1ccc(NC(=O)C(C)C)cc1C(=O)NC(C)c1cccc(-c2nccs2)c1 (stereo not given)", "pIC50": 6.37}
{"COMPOUND": "CCOc1ccc(NC(=O)C(C)C)cc1C(=O)NC(C)c1cccc(NC)c1 (stereo not given)", "pIC50": 7.15}

Provide pIC50 value for the following compound: CCOc1ccc(NC(=O)C(C)C)cc1C(=O)NC(C)c1cccc(N2CCC2)c1 (stereo not given) 6.49

Provide pIC50 value for the following compound: `CC(C)C(=O)Nc1ccc(N(C)C)c(C(=O)NCc2cccc(-c3ccccc3)c2)c1` 5.45

Provide pIC50 value for the following compound: CCOC(=O)Nc1ccc(OCC)c(C(=O)NC(C)c2cccc(-c3nccs3)c2)c1 (stereo not given) 5.96

Provide pIC50 value for the following compound: `CCOc1ccc(NC(=O)C(C)C)cc1C(=O)NCc1cccc(OC(F)(F)F)c1` 6.47
